Would you mind telling me the reported Kd of each entry?
Biological target: T1, PadR WT (Bacillus subtilis, UniProt E0TW95 1-182)
T1 sequence: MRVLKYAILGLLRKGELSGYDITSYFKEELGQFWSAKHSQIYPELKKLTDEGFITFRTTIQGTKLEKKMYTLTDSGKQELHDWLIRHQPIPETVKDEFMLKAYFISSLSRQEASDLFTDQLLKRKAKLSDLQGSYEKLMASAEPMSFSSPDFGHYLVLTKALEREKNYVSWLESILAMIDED
Test: fluorescence polarization
The answer is to be given in nM; state only the numeric part.

# input Determine from records and report Kd for operator T18C/T18'C (dsDNA) DNA 1: CGGAACATGTGAATAGTCACATGATTAC DNA 2: GTAATCATGTGACTATTCACATGTTCCG
# output 20.8

# input Find the measured Kd of operator C6G/C6'G (dsDNA) DNA 1: CGGAAGATGTAAATAGTTACATCATTAC DNA 2: GTAATGATGTAACTATTTACATCTTCCG and report it.
# output 200

# input Given operator T18G/T18'G (dsDNA) DNA 1: CGGAACATGTCAATAGTGACATGATTAC DNA 2: GTAATCATGTCACTATTGACATGTTCCG , respond with its Kd.
# output 9.9
